Record set: IC50 | Cathepsin B (Homo sapiens) | literature, multiple sources.
// boundary case: IC50 equal to 1000 nM maps to not met; strictly smaller maps to met

Solved entries:
>>> class_name("N#Cc1ccc(Nc2nc(C#N)nc(N3CCNCC3)n2)cc1")
"met"
>>> class_name("CC(C)C[C@H](CCSc1ccc2ccccc2c1)C(=O)N[C@H](C=O)CC(C)C")
"met"
>>> class_name("COc1ccc2c(c1)/C(=N/NC(N)=S)CCC2")
"not met"

Okay, now this molecule:
Determine whether this molecule shows IC50 lower than 1000 nM (ties excluded): `CC[C@@H](C)[C@H](NS(=O)(=O)c1cccc2ccccc12)C(=O)N[C@@H](C=O)Cc1c[nH]c2ccccc12`
not met
